# study.system: Cyclin-T1/Cyclin-dependent kinase 9 (Homo sapiens, UniProt O60563+P50750)
# Sequence (O60563 whole entry, the tested form may be a part): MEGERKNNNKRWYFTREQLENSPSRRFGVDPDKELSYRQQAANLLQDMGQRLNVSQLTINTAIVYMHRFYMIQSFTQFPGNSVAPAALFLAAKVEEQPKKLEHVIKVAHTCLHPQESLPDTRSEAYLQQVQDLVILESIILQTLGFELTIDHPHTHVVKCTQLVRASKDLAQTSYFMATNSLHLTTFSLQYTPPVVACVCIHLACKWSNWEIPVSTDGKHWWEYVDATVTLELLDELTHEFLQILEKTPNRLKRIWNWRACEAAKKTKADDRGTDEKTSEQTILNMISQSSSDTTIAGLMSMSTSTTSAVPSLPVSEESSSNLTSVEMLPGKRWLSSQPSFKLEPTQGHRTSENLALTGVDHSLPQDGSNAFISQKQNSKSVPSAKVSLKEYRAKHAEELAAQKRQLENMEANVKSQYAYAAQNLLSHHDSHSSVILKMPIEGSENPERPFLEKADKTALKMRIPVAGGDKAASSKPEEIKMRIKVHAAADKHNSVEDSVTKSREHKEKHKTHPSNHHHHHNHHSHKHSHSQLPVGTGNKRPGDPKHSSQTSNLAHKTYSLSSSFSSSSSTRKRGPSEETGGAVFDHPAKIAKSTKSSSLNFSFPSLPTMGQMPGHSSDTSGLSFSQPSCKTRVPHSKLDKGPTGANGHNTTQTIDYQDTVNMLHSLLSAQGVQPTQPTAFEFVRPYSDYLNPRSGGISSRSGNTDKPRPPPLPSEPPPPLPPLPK
# Sequence (P50750 whole entry, the tested form may be a part): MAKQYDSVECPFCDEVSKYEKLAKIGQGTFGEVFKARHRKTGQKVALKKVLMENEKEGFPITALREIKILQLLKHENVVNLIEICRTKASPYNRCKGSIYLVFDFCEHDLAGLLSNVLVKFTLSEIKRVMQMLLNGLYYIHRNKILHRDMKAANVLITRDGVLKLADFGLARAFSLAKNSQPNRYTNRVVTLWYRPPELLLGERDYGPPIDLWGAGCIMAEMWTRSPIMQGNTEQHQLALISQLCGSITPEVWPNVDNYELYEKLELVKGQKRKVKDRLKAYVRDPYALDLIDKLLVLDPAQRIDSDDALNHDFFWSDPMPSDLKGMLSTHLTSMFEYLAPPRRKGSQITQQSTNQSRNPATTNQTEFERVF
# test: Inhibition of recombinant full length human N-terminal GST-fused CDK9 (1 to 372 residues)/His-tagged CyclinT1 (1 to 726 residues) expressed in baculovirus infected insect cells using FITC-X-GSRTPMY-NH2 as substrate preincubated for 10 mins followed by MgCl2 addition and measured after 90 mins in presence of 5 mM ATP by mobility shift assay
reported.metric: IC50 (nM)

# molecule, reported.metric, measurement
data = [
    ("CC(=O)N[C@@H]1CCC[C@H](C(=O)Nc2cc(-c3cnn4c3CC(C)(C)C4)c(C#N)cn2)C1", "IC50", 62),
]

P. CC(=O)N[C@@H]1CCC[C@H](C(=O)Nc2cc(-c3cnn4c3CC(C)(C)C4)c(F)cn2)C1
Q. CC(=O)N[C@@H]1CCC[C@H](C(=O)Nc2cc(-c3cn[nH]c3CCCCO)c(Cl)cn2)C1 [US10717746, Example 78a]
R. CC1(C)Cc2c(-c3cc(NC(=O)[C@H]4C[C@@H](O)C4)ncc3Cl)cnn2C1
[Q] Order the entries by their reported IC50, beginning at the minimum. Use the labels to give the ranking in the order requested.
[A] P, R, Q
(P: 4 nM, R: 25 nM, Q: 85 nM)
